# measured_on: CYP3A4 (Homo sapiens, UniProt P08684)
# Construct: Human liver microsomes were obtained from BD Gentest; tissue BD Gentest; host or cells: human liver microsomes
# Sequence (P08684 whole entry): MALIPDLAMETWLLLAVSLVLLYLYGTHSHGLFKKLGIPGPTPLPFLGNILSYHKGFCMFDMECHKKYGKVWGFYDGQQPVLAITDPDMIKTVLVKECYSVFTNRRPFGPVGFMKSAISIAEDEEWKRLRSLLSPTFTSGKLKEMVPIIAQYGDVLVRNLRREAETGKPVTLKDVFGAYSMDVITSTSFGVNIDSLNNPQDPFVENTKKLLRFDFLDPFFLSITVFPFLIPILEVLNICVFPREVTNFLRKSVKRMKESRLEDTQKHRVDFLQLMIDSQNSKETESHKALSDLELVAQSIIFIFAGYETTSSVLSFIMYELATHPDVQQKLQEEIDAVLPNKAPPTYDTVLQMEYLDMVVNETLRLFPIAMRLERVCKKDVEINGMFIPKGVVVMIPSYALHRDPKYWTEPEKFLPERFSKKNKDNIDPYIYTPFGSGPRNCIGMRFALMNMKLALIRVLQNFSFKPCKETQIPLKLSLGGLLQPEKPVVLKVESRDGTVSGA
# assay_details: CYP inhibition assay in human liver microsomes (3A4, midazolam)
# Assay type: in vitro ADME
# assay_setup: probe midazolam, human liver microsomes, midazolam
The reader will find reported inhibition at 5 min, 10 µM values listed item by item below.
A number alone suffices; assume %.

The following compounds have reported results that may help.
>  <molecule>
Nc1ccc(-c2cccs2)nc1NC(=O)N1Cc2nccnc2C1

>  <measured_on>
CYP3A4 (Homo sapiens, UniProt P08684)

>  <property>
inhibition at 5 min, 10 µM

>  <observed_value>
1

$$$$
>  <molecule>
COCc1cc2c(cn1)CN(C(=O)Nc1nc(-c3ccc(F)cc3)ccc1N)C2

>  <measured_on>
CYP3A4 (Homo sapiens, UniProt P08684)

>  <property>
inhibition at 5 min, 10 µM

>  <observed_value>
33

$$$$
>  <molecule>
Nc1ccc(-c2ccc(F)cc2)nc1NC(=O)N1Cc2cccnc2C1

>  <measured_on>
CYP3A4 (Homo sapiens, UniProt P08684)

>  <property>
inhibition at 5 min, 10 µM

>  <observed_value>
-4

$$$$

We next turn to a different compound, shown below.
Kindly note the recorded inhibition at 5 min, 10 µM for `Cc1ncc2c(n1)CN(C(=O)Nc1nc(-c3cccs3)ccc1N)C2` , which is 1

meta.source: patent US11286256B2
